property-measured: melting point

Before answering, review these 3 worked examples.
O=C(O)c1ccc(Oc2ccc3nnc(Cl)n3n2)c(-c2ccccc2)c1 [Cpd.4-59] : 266.9 to 267.7 °C
CCc1cc(Oc2cc(C(F)(F)F)ccc2-c2ccccc2)nn2c(Cl)nnc12 [Cpd.5-13] : 139.5 to 141.8 °C
FC(F)(F)c1ccc(-c2ccccc2Oc2ccc3nnc(Cl)n3n2)cc1 [Cpd.4-24] : 185.8 °C

Need melting point, item COc1ncc(F)cc1-c1ccc(C(F)(F)F)cc1Oc1cc(C)c2nnc(Cl)n2n1 [Cpd.4-193] 130 to 132 °C

Need melting point, item CC(C)Nc1ccc(-c2ccccc2)c(Oc2ccc3nnc(Cl)n3n2)c1 [Cpd.4-189] 170 to 175 °C

Need melting point, item FC(F)(F)c1nnc2ccc(Oc3ccccc3Cc3ccccc3)nn12 [Cpd.4-5] 128.8 °C

Need melting point, item Cc1cc(Oc2cc(C(F)(F)F)ccc2-c2cccnc2)nn2c(C(F)(F)F)nnc12 [Cpd.5-32] 151 to 153 °C

Need melting point, item Oc1ccc(Oc2ccc3nnc(Cl)n3n2)c(-c2ccccc2)c1 [Cpd.4-32] 267.7 °C

Need melting point, item Cc1ccc(-c2ccccc2Oc2ccc3nnc(Cl)n3n2)cc1 [Cpd.4-23] 166.9 to 173.4 °C

Ref: patent US9586963B2
